- Test system: 695427-040-R-J1-PDC complex spheroid viability;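 further: spheroids exposed to compounds for seven days; 100% = DMSO vehicle control viability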
- Test method notes: Anticancer human tumor 695427-040-R-J1-PDC patient-derived colon adenocarcinoma cell line growth inhibition [POLQ]
- Measurement context: second compound 0.0316 µM; first compound 3.16 µM; stronger effect = lower value
Quantity name: viability, T/C (%)
Quick reminder: number only, in %, skip the unit.

Reported 695427-040-R-J1-PDC complex spheroid viability viability, T/C for item CCCS(=O)(=O)Nc1ccc(F)c(C(=O)c2c[nH]c3ncc(-c4ccc(Cl)cc4)cc23)c1F + Nc1ccc(C#CCN(C(=O)Cc2ncc(C(F)(F)F)cc2C(F)(F)F)c2ccc(F)cc2)nn1 was 117

Reported 695427-040-R-J1-PDC complex spheroid viability viability, T/C for item CNCc1ccc(-c2[nH]c3cc(F)cc4c3c2CCNC4=O)cc1 + COC1C(OC(N)=O)C(O)C(Oc2ccc3c(O)c(NC(=O)c4ccc(O)c(CC=C(C)C)c4)c(=O)oc3c2C)OC1(C)C was 112

Reported 695427-040-R-J1-PDC complex spheroid viability viability, T/C for item CC1COCCN1c1cc(C2(O)CC3CCC(C2)O3)c2cnn(-c3ccn[nH]3)c2n1 (stereo not drawn) + Cc1cccc(N(C)C(=O)C2C(O)CCN2c2nc(C)cc(C(F)(F)F)c2C#N)c1 was 52.5
